Listed molecules paired with reported IC50
# Tested on: L6
# procedureText: Cytotoxicity against rat L6 cells after 72 hrs by AlamarBlue dye based fluorimetric method
# Format: cell-based
# measurementConditions: L6, 72 h
Express it in µM; write the number only.

# count of solved cases: 3
CC(C)c1ccc2c(c1)CC[C@H]1[C@](C)(CN)CCC[C@]21C	6.5
C=CC(=O)NC[C@]1(C)CCC[C@]2(C)c3ccc(C(C)C)cc3CC[C@@H]12	36.7
CC(=O)NC[C@]1(C)CCC[C@]2(C)c3ccc(C(C)C)cc3CC[C@@H]12	24.3

Next molecule, please.
Request: Respond only with IC50 recorded for `CC(C)c1ccc2c(c1)CC[C@H]1[C@](C)(CNC(=O)/C=C\C(=O)O)CCC[C@]21C`
Response: 33.5

###

# procedureText: Selectivity index, ratio of IC50 for African green monkey Vero cells to IC50 for metacyclic form of Trypanosoma cruzi SN3
# Assay type: toxicity, cell-based
# measurementConditions: read-out: Ratio IC50
readoutKind: selectivity ratio
# respond with the number and nothing more

Request: // Input: `COC(=O)[C@]1(C)CCC[C@]2(C)C3=C(CC[C@@H]12)C(=O)C(C(C)C)=CC3=O` . Output its selectivity ratio only.
Response: 45

###

# procedureText: Selectivity index, ratio of IC50 for human THP1 cells to IC50 for axenic amastigotes of Leishmania donovani MHOM/SD/1962/1S-Cl2d infected in human THP1 cells
# Format: toxicity, cell-based, THP-1
# measurementConditions: read-out: Ratio IC50
In this section we review reported selectivity ratio values for a set of compounds.
Lab note: record just the number, no unit beside it.

CC(C)c1ccc2c(c1)CC[C@H]1[C@](C)(CNC(=O)c3ccc[nH]3)CCC[C@]21C	10
CC(=O)NC[C@]1(C)CCC[C@]2(C)c3ccc(C(C)C)cc3CC[C@@H]12	14
C=CC(=O)NC[C@]1(C)CCC[C@]2(C)c3ccc(C(C)C)cc3CC[C@@H]12	63
CC(C)c1ccc2c(c1)CC[C@H]1[C@](C)(CNC(=O)/C=C\C(=O)O)CCC[C@]21C	76

Read the next record carefully.
Request: Determine its reported selectivity ratio: `CCCC(=O)NC[C@]1(C)CCC[C@]2(C)c3ccc(C(C)C)cc3CC[C@@H]12`
Response: 11

###

Parameter pIC50: see the listing below.
# procedureText: Cytotoxicity against human THP1 cells after 48 hrs by AlamarBlue viability assay
# Format: cell-based
# measurementConditions: THP-1, 48 h
Just the number, please; pIC50 means minus log10 of the concentration in mol/L.

Illustrative cases are given below, each with its answer.
CC(=O)NC[C@]1(C)CCC[C@]2(C)c3ccc(C(C)C)cc3CC[C@@H]12	4.48
CC(C)c1ccc2c(c1)CC[C@H]1[C@](C)(CNC(=O)c3ccc[nH]3)CCC[C@]21C	4.48

Request: Give pIC50 for the following molecule: `CC(C)c1ccc2c(c1)CC[C@H]1[C@](C)(CNC(=O)/C=C\C(=O)O)CCC[C@]21C`
Response: 3.84

Request: Give a short answer stating reported pIC50 for `C=CC(=O)NC[C@]1(C)CCC[C@]2(C)c3ccc(C(C)C)cc3CC[C@@H]12` .
Response: 4.63

Request: Determine its reported pIC50: `CCCC(=O)NC[C@]1(C)CCC[C@]2(C)c3ccc(C(C)C)cc3CC[C@@H]12`
Response: 4.25
